Origin of the recorded values: patent US10213429B2

system_under_test: sGC α1/β1 heterodimer (Homo sapiens, UniProt Q02108+Q02153)
Construct: expressed in transfected cells; host or cells: CHO-K1 (clone #7, CHO-K1/sGC)
Sequence (Q02108 1-690): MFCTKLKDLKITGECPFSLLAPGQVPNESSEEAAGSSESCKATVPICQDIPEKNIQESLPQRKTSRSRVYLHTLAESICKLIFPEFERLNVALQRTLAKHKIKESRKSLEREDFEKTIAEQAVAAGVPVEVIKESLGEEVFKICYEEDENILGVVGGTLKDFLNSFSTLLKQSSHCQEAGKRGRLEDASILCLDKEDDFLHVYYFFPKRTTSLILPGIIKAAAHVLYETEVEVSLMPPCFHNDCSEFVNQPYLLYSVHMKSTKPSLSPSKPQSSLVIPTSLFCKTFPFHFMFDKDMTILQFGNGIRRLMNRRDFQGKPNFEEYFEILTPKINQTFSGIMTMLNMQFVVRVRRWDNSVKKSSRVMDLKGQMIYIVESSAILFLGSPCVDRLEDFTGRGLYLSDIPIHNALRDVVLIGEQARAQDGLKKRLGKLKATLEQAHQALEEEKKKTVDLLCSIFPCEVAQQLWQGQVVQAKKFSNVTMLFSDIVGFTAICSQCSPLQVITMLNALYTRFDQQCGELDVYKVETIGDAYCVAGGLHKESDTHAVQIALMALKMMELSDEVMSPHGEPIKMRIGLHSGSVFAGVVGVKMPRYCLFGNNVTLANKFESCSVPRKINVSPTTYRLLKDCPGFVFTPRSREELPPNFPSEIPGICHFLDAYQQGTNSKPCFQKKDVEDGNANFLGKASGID
Sequence (Q02153 1-619): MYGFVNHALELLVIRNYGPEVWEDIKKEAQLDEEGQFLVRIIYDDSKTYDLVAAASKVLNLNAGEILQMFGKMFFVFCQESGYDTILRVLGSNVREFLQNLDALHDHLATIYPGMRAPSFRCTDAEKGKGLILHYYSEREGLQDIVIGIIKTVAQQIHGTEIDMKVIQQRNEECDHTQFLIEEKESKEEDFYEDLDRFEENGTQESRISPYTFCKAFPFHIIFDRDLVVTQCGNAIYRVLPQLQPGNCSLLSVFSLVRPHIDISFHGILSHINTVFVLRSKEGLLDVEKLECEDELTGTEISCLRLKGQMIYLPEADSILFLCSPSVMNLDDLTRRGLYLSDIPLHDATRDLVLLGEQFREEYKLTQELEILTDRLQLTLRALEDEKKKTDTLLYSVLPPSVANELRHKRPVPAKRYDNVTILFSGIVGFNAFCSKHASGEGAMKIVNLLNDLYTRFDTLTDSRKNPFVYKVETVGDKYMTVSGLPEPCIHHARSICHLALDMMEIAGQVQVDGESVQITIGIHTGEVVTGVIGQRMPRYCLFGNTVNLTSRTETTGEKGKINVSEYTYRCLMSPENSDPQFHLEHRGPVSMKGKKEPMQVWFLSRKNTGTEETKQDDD
test_summary: Cell-Based sGC Functional Assay (CASA Assay), cGMP by HTRF in CHO-K1/sGC cells
condition_notes: cGMP production, 1 hr at 37° C., 4P fit, presence or absence of 1 μM DETA-NO not given, read-out: IP (nM) (inflection point)
measurement_name: EC50 (nM)

(a) O=C1Nc2nc(-c3cn4ccnc4c(Cc4ccc(F)cc4)n3)ncc2C1(C(=O)NC1CC1)C1CC1 (single isomer, unassigned) [Example 68B]
(b) CC1(c2ccc(Cl)cc2)C(=O)Nc2nc(-c3cn4ccnc4c(CCCC(F)(F)F)n3)nc(O)c21 (stereo not shown) [Example 26A]
(c) CCCCc1nc(-c2ncc3c(n2)NC(=O)C3(c2ccc(F)c(F)c2)C2CC2)cn2ccnc12 (stereo not shown) [Example 43A]
Input line: Rank order required: EC50, descending. The reply should contain the labels ordered as requested.
Output line: b, a, c
(b: 200 nM, a: 83 nM, c: 7 nM)

(I) CC1(c2ccc(F)cc2)C(=O)Nc2nc(-c3cn4ccnc4c(CCC(F)(F)C(F)(F)F)n3)nc(C#N)c21 (stereo not shown) [Example 85A]
(II) O=C1Nc2nc(-c3cn4ccnc4c(CCCC(F)(F)F)n3)ncc2C1(c1ccc(F)c(F)c1)C1CC1 (stereo not shown) [Example 44A]
(III) CC1(c2ccc(F)cn2)C(=O)Nc2nc(-c3cn4ccnc4c(CC4CCC4)n3)ncc21 (stereo not shown) [Example 65B]
Input line: Kindly order the items shown according to EC50, from the highest value down. Please express your ranking as an ordered list of the labels.
Output line: I, II, III
